Entry source: patent US20250361305A1

# tested_system: PD-L1 antigen (ELISA of Example 2) (human, UniProt Q9NZQ7 19-239, limits assumed)
# Sequence (Q9NZQ7 19-239 limits assumed): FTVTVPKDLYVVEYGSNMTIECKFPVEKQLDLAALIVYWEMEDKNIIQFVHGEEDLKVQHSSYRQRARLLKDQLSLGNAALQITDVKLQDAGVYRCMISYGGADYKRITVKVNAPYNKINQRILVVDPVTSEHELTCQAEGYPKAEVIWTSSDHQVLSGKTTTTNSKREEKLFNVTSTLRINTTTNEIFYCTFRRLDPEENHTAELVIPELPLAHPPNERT
# test_method_notes: ELISA, signal on PD-L1 antigen over control
Dear colleague, classification is by A/control, with ranges listed here: Low: < 10; Mid: ≥ 10 and < 30; High: ≥ 30

>  <binder>
2LIG89 (VHH, PD-L1 VHH) VHH: QVQLQESGGGLVQPGGSLRLSCAASGFNLDPYAIAWFRQAPGKEREEVSCISSSDVGTYYADSVKGRFTISRDNTKKTVYLQMNSLKPEDTAVYYCATDGYYYCSDYPHPLYWGQGTQVTVSS

>  <class_label>
Mid

$$$$
>  <binder>
2LIG99 (VHH, PD-L1 VHH) VHH: QVQLQESGGGLVQAGGSLRLSCTASGTIFSINRMDWFRQAPGKQRELVALITSDGTPAYADSAKGRFTISRDNTKKTVSLQMNSLKPEDTAVYYCHVSSGVYNYWGQGTQVTVSS

>  <class_label>
Low

$$$$
>  <binder>
2LIG48 (VHH, PD-L1 VHH) VHH: QVQLQESGGGLVQPGGSLRLSCAASGFTFNDYAMSWVRQAPGKGLEWVSGIRSNGGYTNYADSVKGRFTISRDNAKNTLYLQMNSLKSEDTAVYYCAQGYYCSGYGCYPGQGTQVTVSS

>  <class_label>
High

$$$$
>  <binder>
2LIG65 (VHH, PD-L1 VHH) VHH: QVQLQESGGGLVQAGGSLRLSCAASGFNLDPYAIAWFRQAPGKEREEVSCISSSDVGTYYADSVKGRFTISRDNAKKTVYLQMNSLKPEDTAVYYCATDGYYYCSDYPHPLYWGQGTQVTVSS

>  <class_label>
Mid

$$$$
>  <binder>
2LIG29 (VHH, PD-L1 VHH) VHH: QVQLQESGGGLVQTGGSLRLSCAASGFTFSSYGMSWVRQTPGKGPEWVSAIDSGGGSTSYADSVKGRFTISRDNAKNTLYLQMNSLKPEDTAVYYCAQGYYCSGYGCSDYWGQGTQVTVSS

>  <class_label>
High

$$$$
>  <binder>
2LIG86 (VHH, PD-L1 VHH) VHH: QVQLQESGGGLVQPGGSLRLSCAASGFTFDYYAIGWFRQAPGKEREEVSCISGSDSSTYYADSVKGRFTIVRDNAQNTVYLQMNSLKPEDTAIYYCAVTGWRTCRGLNEYDYWGQGTQVTVSS

>  <class_label>
High

$$$$
>  <binder>
3LIG9 (VHH, PD-L1 VHH) VHH: QVQLQESGGGLVQPGGSLRLSCAASGFTFSSYGMSWVRQTPGKGPEWVSAIDSGGGSTSYADSVKGRFTISRDNAKNTLYLQMNSLKPEDTAVYYCAQGYYCSGYGCSDYWGQGTQVTVSS

>  <class_label>
High

$$$$
>  <binder>
2LIG16 (VHH, PD-L1 VHH) VHH: QVQLQESGGGLVQPGGSLRLSCAASGFTFDDYGMSWVRQAPGKGLEWVSAIRWNGGSTNYADSVKGRFTISRDNAKNTLYLQMNSLKSEDTAVYYCAQGYYCSGYGCPRGQGTQVTVSS

>  <class_label>
Mid

$$$$
>  <binder>
2LIG127 (VHH, PD-L1 VHH) VHH: QVQLQESGGGLVQPGGSLRLSCAASGFNLDPYAIGWFRQAPGKEREEVSCISSGDGSKYYADSVKGRFTMSRDNAKKTVYLQMNSLKPEDTAVYYCATDGYYYCSDYPHPLYWGQGTQVTVSS

>  <class_label>
High

$$$$
>  <binder>
2LIG30 (VHH, PD-L1 VHH) VHH: QVQLQESGGGLVQPGGSLRLSCAASGKIFSGNDMGWYRQAPGKQRELVGIITSGGITDYADAVKGRFTISRDNAKNMMYLQMNSLKPEDTAVYYCNMRDRTIWWGQGTQVTVSS

>  <class_label>
Low

$$$$

Where would 3LIG29 (VHH, PD-L1 VHH) VHH: QVQLQESGGGLVQAGGSMRLSCAASGFTFSSYGMSWVRQTPGKGPEWVSAIDSGGGSTSYADSVKGRFTISRDNAKNTLYLQMNSLKPEDTAVYYCAQGYYCSGYGCSDYWGQGTQVTVSS land among the classes by reported A/control?
High

Please give the result for 3LIG3 (VHH, PD-L1 VHH) VHH: QVQLQESGGGLVQPGGSLRLSCAASGFTLDYYAIGWFRQAPGKEREEVSCISSSDGSTYYADSVKGRFTISRDNAKNTVNLQMNSLKPEDTAVYYCATDGWSSCRHGINEYLYWGQGTQVTVSS too.
Low

Please give the result for 2LIG27 (VHH, PD-L1 VHH) VHH: QVQLQESGGGVVQAGGSLRLSCTASGTIFSINRMDWFRQAPGKQRELVALITSDGTPTYADSAKGRFTISRDNTKKTVSLQMNSLKPEDTAVYYCHVSSGVYNYWGQGTQVTVSS too.
Low

Please give the result for 2LIG22 (VHH, PD-L1 VHH) VHH: QVQLQESGGGLVQPGGSLRLSCAASGFTLDYYAINWFRQAPGKEREEVSCISSSDGSTYYADSVKGRFTISRDNAKNTVYLQMNSLKPEDTAVYYCATSGWRLCRPTDEYDYSYWGQGTQVTVSS too.
Low
